- Organism: Oryctolagus cuniculus
- TEST_NAME: Distribution volume at steady state in rabbit
- REPORTED_CONDITIONS: in vivo, read-out: Vdss
ENDPOINT: Vd (L/kg)
# output: bare number, implied unit L/kg

Q: Return the recorded Vd value; entry: N=C(N)c1ccc2ncn(CC(=O)Nc3ccc(-c4ccccc4S(N)(=O)=O)cc3)c2c1
Result: 3.04

====

Consider the following pKi values measured on Serine protease 1 (Homo sapiens).
Sequence (P07477 whole entry): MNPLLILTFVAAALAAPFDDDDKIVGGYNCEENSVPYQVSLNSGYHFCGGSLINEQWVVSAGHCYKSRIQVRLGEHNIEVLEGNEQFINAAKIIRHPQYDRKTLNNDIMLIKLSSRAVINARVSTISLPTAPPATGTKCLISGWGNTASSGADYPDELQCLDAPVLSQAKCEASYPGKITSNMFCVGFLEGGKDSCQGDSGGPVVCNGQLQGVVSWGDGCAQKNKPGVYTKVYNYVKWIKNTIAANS
The scale used: pKi is minus the common logarithm of the concentration in molar units.

Reference set, count: 9
Cc1cc(-c2ccccc2S(N)(=O)=O)ccc1NC(=O)Cc1c[nH]c2ccc(C(=N)N)cc12 = 6.47
N=C(N)c1ccc2c(c1)C(CC(=O)Nc1ccc(-c3ccccc3S(N)(=O)=O)cc1)CN2 (single isomer, unassigned; (+)) = 6.85
CN(C)S(=O)(=O)c1ccccc1-c1ccc(NC(=O)Cc2c[nH]c3ccc(C(=N)N)cc23)cc1 = 6.41
N=C(N)c1ccc2ncn(CC(=O)c3ccc(-c4ccccc4)cc3)c2c1 = 6.49
CCOC(=O)C(CCc1cccc(C(=N)N)c1)Cn1cnc2cc(C(=N)N)ccc21 (stereo not given) = 6.66
N=C(N)c1ccc2ncn(CC(=O)Nc3ccc(-c4ccccc4S(N)(=O)=O)cc3)c2c1 = 7.33
CCOC(=O)C(CCc1cccc(C(=N)N)c1)Cn1cnc2ccc(C(=N)N)cc21 (stereo not given) = 6.09
Cn1cc(CC(=O)Nc2ccc(-c3ccccc3S(N)(=O)=O)cn2)c2cc(C(=N)N)ccc21 = 5.82
N=C(N)c1ccc2c(c1)ncn2CC(=O)Nc1ccc(-c2ccccc2S(N)(=O)=O)cc1 = 6.89

Next compound, please.
Q: Check Serine protease 1 (Homo sapiens) data and give pKi for N=C(N)c1ccc2[nH]cc(CC(=O)Nc3ccc(-c4ccccc4S(N)(=O)=O)cc3Cl)c2c1 .
Result: 6.85

====

- SYSTEM_UNDER_TEST: UniProtKB P00734
ENDPOINT: Ki (nM)
# output: bare number, implied unit nM

CNS(=O)(=O)c1ccccc1-c1ccc(NC(=O)Cc2c[nH]c3ccc(C(=N)N)cc23)cc1 = 900
N=C(N)c1ccc2ncn(CC(=O)c3ccc(-c4ccccc4S(N)(=O)=O)cc3)c2c1 = 2800

Q: Return the recorded Ki value; entry: Cn1cc(CC(=O)Nc2ccc(-c3ccccc3S(N)(=O)=O)cn2)c2cc(C(=N)N)ccc21
Result: 21000

Q: Return the recorded Ki value; entry: N=C(N)c1ccc2[nH]cc(CC(=O)Nc3ccc(-c4ccccc4S(N)(=O)=O)cc3I)c2c1
Result: 200

Q: Return the recorded Ki value; entry: N=C(N)c1ccc2c(c1)C(CC(=O)Nc1ccc(-c3ccccc3S(N)(=O)=O)cc1)CN2 (single isomer, unassigned; (-))
Result: 17000

Q: Return the recorded Ki value; entry: CN(C(=O)Cc1c[nH]c2ccc(C(=N)N)cc12)c1ccc(-c2ccccc2S(N)(=O)=O)cc1
Result: 14000

====

Consider the following Ki values measured on Prothrombin (Homo sapiens).
# output: bare number, implied unit nM

Reference set, count: 4
CCNS(=O)(=O)c1ccccc1-c1ccc(NC(=O)Cc2c[nH]c3ccc(C(=N)N)cc23)cc1 = 800
CN(C)S(=O)(=O)c1ccccc1-c1ccc(NC(=O)Cc2c[nH]c3ccc(C(=N)N)cc23)cc1 = 1700
Cc1cc(-c2ccccc2S(N)(=O)=O)ccc1NC(=O)Cc1c[nH]c2ccc(C(=N)N)cc12 = 1000
CCOC(=O)C(CCc1cccc(C(=N)N)c1)Cn1cnc2ccc(C(=N)N)cc21 (stereo not given) = 1900

Next molecule, please.
Q: Return the recorded Ki value; entry: N=C(N)c1ccc2[nH]cc(CC(=O)Nc3ccc(-c4ccccc4S(N)(=O)=O)cc3Cl)c2c1
Result: 500
